PROTOCOL TEXT: Drug concentrations in plasma samples and brain tissue samples after oral administration, LC-MS/MS
Format: in vivo, female C57BL/6 mice
CONDITION SUMMARY: female, C57BL/6, mouse, plasma, 30 mg/kg, 30 mg QD oral, 15 consecutive days, 2Hr after the last dose, mice, read-out: concentration in plasma
OBSERVED PROPERTY: concentration at 2 h (ng/mL)
Return type: number; implicit unit ng/mL.

Lookup: Can you share its concentration at 2 h? I mean this compound: [2H]C([2H])([2H])Oc1c(-c2cnn(C)n2)ccnc1Nc1cc(NC(=O)[C@H]2CC23CC3)ncc1C(=O)CC [Compound 4S]
Found: 2040
